# assay.system: TRAP1 enzyme (Homo sapiens)
# Sequence (Q12931 60-704): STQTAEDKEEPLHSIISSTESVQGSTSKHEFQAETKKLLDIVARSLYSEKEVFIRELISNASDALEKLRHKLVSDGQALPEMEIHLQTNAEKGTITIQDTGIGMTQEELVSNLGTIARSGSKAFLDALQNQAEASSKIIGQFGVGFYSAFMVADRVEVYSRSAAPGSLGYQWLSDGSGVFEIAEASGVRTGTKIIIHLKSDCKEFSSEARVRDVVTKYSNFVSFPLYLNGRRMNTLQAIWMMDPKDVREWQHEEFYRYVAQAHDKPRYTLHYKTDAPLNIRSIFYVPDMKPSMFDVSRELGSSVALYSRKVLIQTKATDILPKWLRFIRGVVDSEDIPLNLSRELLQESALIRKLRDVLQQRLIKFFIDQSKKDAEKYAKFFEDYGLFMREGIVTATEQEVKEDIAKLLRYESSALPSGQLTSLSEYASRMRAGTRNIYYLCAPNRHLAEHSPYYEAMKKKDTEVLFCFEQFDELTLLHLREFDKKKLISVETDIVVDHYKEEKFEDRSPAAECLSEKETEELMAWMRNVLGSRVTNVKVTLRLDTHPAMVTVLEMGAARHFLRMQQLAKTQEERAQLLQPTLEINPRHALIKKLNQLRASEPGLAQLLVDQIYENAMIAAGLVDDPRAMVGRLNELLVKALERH
# measurement.protocol: Malachite green phosphate assay of TRAP1 ATPase activity
# Type: biochemical
# test.conditions: read-out: Malachite Green Fluor DRC: Mean Emax
# Experimental: The Potency of test compounds to modulate the ATPase activity of TRAP1 enzyme was evaluated using malachite green phosphatase assay. The assay is based on quantification of the green complex formed between Malachite Green, molybdate and inorganic phosphate generated in the phosphatase reaction. Assays were performed using a Malachite Green assay kit. […] The reaction was stopped by adding 12% H2SO4 and the plate was read for fluorescence at 620 nm (λex=573 nm). […]
For each record, write down the corresponding Emax.

Example entries begin here.
COc1ccc(NC(=O)c2ncco2)cc1S(=O)(=O)N(CCCCCC[P+](c1ccccc1)(c1ccccc1)c1ccccc1)c1ccc(Br)cc1
> 300%
COc1ccc(NC(=O)c2cnc[nH]2)cc1S(=O)(=O)N(CCCCCCBr)c1ccc(Br)cc1
200 to 300%
COc1ccc(NC(=O)c2cnc(C(F)(F)F)[nH]2)cc1S(=O)(=O)Nc1ccccc1C
123 to 159%

Below are some molecules; for each one, tell me its Emax.
1. O=C(O)/C=C/c1ccc(NC(=O)c2ncc(-c3ccccc3)o2)cc1S(=O)(=O)Nc1ccc(Cl)cc1
2. COc1ccc(NC(=O)c2ncc(C(F)(F)F)[nH]2)cc1S(=O)(=O)Nc1ccc(Br)cc1
3. CC(C)c1ccc(NC(=O)c2ncc(-c3ccccc3)o2)cc1S(=O)(=O)Nc1ccc(Cl)cc1
4. COc1ccc(NC(=O)c2cnc(C(F)(F)F)[nH]2)cc1S(=O)(=O)N(CCCCCO)c1ccc(Br)cc1
5. COc1ccc(NC(=O)c2cnccc2C)cc1S(=O)(=O)Nc1ccc(C)cc1
6. COc1ccc(NC(=O)c2cnc(-c3ccccc3)[nH]2)cc1S(=O)(=O)N(CCCCCC(=O)O)c1ccc(Br)cc1

1. 160 to 199%
2. 160 to 199%
3. 123 to 159%
4. > 300%
5. 160 to 199%
6. > 300%

====

# assay.system: TRAP1 enzyme (Homo sapiens)
# measurement.protocol: ADP Glo assay of TRAP1 ATPase activity
# Format: biochemical
# test.conditions: TRAP1 ATPase activation, 150 nM Trap1, 20 μM ATP, geometric mean; read-out: ADP GLO DRC: GeoMean EC50
# Procedure: Potency of test compounds to modulate the ATPase activity of TRAP1 enzyme was evaluated using ADP Glo assay. The assay is based on quantification of the ADP generated from ATP in the ATPase reaction. […] Second, the Kinase Detection Reagent is added to simultaneously convert ADP to ATP and allow the newly synthesized ATP to be measured using a luciferase/luciferin reaction. […]
pEC50: −log10 of the molar value.
quantity.kind: pEC50

Example entries begin here.
COc1ccc(NC(=O)c2scc(C)c2Cl)cc1S(=O)(=O)Nc1c(C)cccc1C
> 5.00
CCOc1c(F)c(F)cc(C(=O)Nc2ccc(OC)c(S(=O)(=O)Nc3c(C)cccc3C)c2)c1F
> 5.00
COc1ccc(NC(=O)c2cccnc2-c2cc(F)cc(F)c2)cc1S(=O)(=O)Nc1c(C)cccc1C
4.70 to 5.00

Below are some molecules; for each one, tell me its pEC50.
1. COc1ccc(NC(=O)c2cccc(OC3CCOCC3)n2)cc1S(=O)(=O)Nc1c(C)cccc1C
2. COc1ccc(NC(=O)c2nc(-c3ccccc3)oc2C)cc1S(=O)(=O)Nc1c(C)cccc1C
3. COc1ccc(NC(=O)c2cnc(-c3ccccc3)s2)cc1S(=O)(=O)Nc1ccc(Cl)cc1
4. COc1ccc(NC(=O)c2c(C(F)(F)F)coc2C)cc1S(=O)(=O)Nc1c(C)cccc1C
5. COc1ccc(NC(=O)c2cc(-n3ccnc3)ccn2)cc1S(=O)(=O)Nc1c(C)cccc1C

["4.00 to 4.70", "> 5.00", "> 5.00", "4.70 to 5.00", "4.70 to 5.00"]

Below are some molecules; for each one, tell me its pEC50.
1. COc1ccc(-c2noc(C)c2C(=O)Nc2ccc(F)c(S(=O)(=O)Nc3ccc(Cl)cc3)c2)cc1
2. COc1ccc(NC(=O)c2ncccc2-c2ccccc2)cc1S(=O)(=O)Nc1c(C)cccc1C
3. COc1ccc(NC(=O)c2csc(-c3ccccc3)n2)cc1S(=O)(=O)N(CC(O)CO)c1ccc(Cl)cc1 (stereo not drawn)

1. 4.70 to 5.00
2. 4.70 to 5.00
3. > 5.00

Below are some molecules; for each one, tell me its pEC50.
1. Cc1nc(C(=O)Nc2ccc(F)c(S(=O)(=O)Nc3ccc(Cl)cc3)c2)c(C)s1
2. Cn1ncc(I)c1C(=O)Nc1ccc(F)c(S(=O)(=O)Nc2ccc(Cl)cc2)c1
3. COc1ccc(NC(=O)c2c[nH]c(-c3c(F)cccc3F)n2)cc1S(=O)(=O)Nc1ccc(Br)cc1
4. COc1ccc(NC(=O)c2ncc(-c3ccccc3)o2)cc1S(=O)(=O)Nc1sc2c(c1C#N)CCCC2

["4.00 to 4.70", "4.00 to 4.70", "> 5.00", "4.70 to 5.00"]

====

For each record, write down the corresponding EC50.
# assay.system: TRAP1 enzyme (Homo sapiens)
# measurement.protocol: Malachite green phosphate assay of TRAP1 ATPase activity
# Assay type: biochemical
# test.conditions: TRAP1 ATPase activation, 150 nM Trap1, 20 μM ATP, geometric mean; read-out: Malachite Green Fluor DRC: GeoMean EC50

Below are some compounds; for each one, tell me its EC50.
1. COc1ccc(NC(=O)c2cnc(C(F)(F)F)[nH]2)cc1S(=O)(=O)N(CCCCN1CCCC1)c1ccc(Br)cc1
2. O=C(Nc1cccc(S(=O)(=O)N2CCOc3cc(Cl)ccc32)c1)c1ncc(-c2ccccc2)o1
3. O=C(Nc1cccc(S(=O)(=O)N2CCOc3cc(F)ccc32)c1)c1ncco1
4. COc1ccc(NC(=O)c2cnc(-c3ccccc3)[nH]2)cc1S(=O)(=O)N(CCCCCC[P+](c1ccccc1)(c1ccccc1)c1ccccc1)c1ccc(Br)cc1
5. COc1ccc(NC(=O)c2cnc(C(F)(F)F)[nH]2)cc1S(=O)(=O)N(CCCCCN1CCOCC1)c1ccc(Br)cc1
6. COc1ccc(NC(=O)c2nccs2)cc1S(=O)(=O)Nc1ccc(Cl)cc1
7. O=C(Nc1cccc(S(=O)(=O)N2CCOc3ccccc32)c1)c1ncco1

["20 to 100 µM", "< 10 µM", "20 to 100 µM", "< 10 µM", "10 to 20 µM", "20 to 100 µM", "20 to 100 µM"]

====

# assay.system: TRAP1 enzyme (Homo sapiens)
# Sequence (Q12931 60-704): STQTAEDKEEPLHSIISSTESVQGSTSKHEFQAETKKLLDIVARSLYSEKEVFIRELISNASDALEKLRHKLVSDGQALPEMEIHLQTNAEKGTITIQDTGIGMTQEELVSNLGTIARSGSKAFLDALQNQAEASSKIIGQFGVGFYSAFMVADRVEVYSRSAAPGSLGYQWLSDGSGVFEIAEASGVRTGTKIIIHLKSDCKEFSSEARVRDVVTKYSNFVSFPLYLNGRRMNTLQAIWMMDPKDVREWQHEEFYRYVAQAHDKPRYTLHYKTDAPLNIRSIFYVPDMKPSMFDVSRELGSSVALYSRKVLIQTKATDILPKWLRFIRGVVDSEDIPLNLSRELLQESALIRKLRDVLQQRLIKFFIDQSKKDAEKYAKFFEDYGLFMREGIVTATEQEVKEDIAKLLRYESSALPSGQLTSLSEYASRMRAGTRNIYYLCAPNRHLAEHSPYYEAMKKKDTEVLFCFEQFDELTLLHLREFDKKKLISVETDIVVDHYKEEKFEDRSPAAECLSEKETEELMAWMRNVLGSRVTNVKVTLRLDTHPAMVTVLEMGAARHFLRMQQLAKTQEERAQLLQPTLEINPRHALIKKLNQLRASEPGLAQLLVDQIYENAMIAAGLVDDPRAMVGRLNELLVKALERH
# measurement.protocol: ADP Glo assay of TRAP1 ATPase activity
# Type: biochemical
# test.conditions: read-out: ADP GLO DRC: Mean Emax
# Method: Potency of test compounds to modulate the ATPase activity of TRAP1 enzyme was evaluated using ADP Glo assay. The assay is based on quantification of the ADP generated from ATP in the ATPase reaction. […] Second, the Kinase Detection Reagent is added to simultaneously convert ADP to ATP and allow the newly synthesized ATP to be measured using a luciferase/luciferin reaction. […]
quantity.kind: Emax

Example entries begin here.
CCc1cc(C(=O)Nc2ccc(F)c(S(=O)(=O)Nc3ccc(Cl)cc3)c2)cc(C)n1
123 to 159%
Cc1nc(C(=O)Nc2ccc(F)c(S(=O)(=O)Nc3ccc(Cl)cc3)c2)nn1-c1ccc(F)cc1
123 to 159%
CCOc1ncccc1C(=O)Nc1ccc(F)c(S(=O)(=O)Nc2ccc(Cl)cc2)c1
200 to 300%
CCc1ccc(NC(=O)c2cccc3ncn(C)c23)cc1S(=O)(=O)Nc1c(C)cccc1C
160 to 199%
O=C(Nc1ccc(F)c(S(=O)(=O)Nc2ccc(Cl)cc2)c1)c1cccc2cnccc12
123 to 159%

Below are some compounds; for each one, tell me its Emax.
1. Cc1cc(Cl)nc(Cl)c1C(=O)Nc1ccc(F)c(S(=O)(=O)Nc2ccc(Cl)cc2)c1
2. COc1ccc(NC(=O)c2ccc(C)nc2OC)cc1S(=O)(=O)Nc1c(C)cccc1C
3. COc1ccc(NC(=O)c2ccoc2C(F)(F)F)cc1S(=O)(=O)Nc1c(C)cccc1C
4. COc1ccc(NC(=O)c2cn(C(C)C)cc2C(F)(F)F)cc1S(=O)(=O)Nc1c(C)cccc1C
5. COc1ccc(NC(=O)c2cc(Br)cnc2C)cc1S(=O)(=O)Nc1c(C)cccc1C
6. COc1ccc(NC(=O)c2cnc3ccccc3c2)cc1S(=O)(=O)Nc1c(C)cccc1C

123 to 159%
200 to 300%
160 to 199%
160 to 199%
160 to 199%
200 to 300%
